Data provenance is patent US20260365670A1.

target.system: EGFR L858R (Homo sapiens, UniProt P00533, L858R)
Construct: purchased Carna Bio
Sequence (P00533 25-1210 L858R): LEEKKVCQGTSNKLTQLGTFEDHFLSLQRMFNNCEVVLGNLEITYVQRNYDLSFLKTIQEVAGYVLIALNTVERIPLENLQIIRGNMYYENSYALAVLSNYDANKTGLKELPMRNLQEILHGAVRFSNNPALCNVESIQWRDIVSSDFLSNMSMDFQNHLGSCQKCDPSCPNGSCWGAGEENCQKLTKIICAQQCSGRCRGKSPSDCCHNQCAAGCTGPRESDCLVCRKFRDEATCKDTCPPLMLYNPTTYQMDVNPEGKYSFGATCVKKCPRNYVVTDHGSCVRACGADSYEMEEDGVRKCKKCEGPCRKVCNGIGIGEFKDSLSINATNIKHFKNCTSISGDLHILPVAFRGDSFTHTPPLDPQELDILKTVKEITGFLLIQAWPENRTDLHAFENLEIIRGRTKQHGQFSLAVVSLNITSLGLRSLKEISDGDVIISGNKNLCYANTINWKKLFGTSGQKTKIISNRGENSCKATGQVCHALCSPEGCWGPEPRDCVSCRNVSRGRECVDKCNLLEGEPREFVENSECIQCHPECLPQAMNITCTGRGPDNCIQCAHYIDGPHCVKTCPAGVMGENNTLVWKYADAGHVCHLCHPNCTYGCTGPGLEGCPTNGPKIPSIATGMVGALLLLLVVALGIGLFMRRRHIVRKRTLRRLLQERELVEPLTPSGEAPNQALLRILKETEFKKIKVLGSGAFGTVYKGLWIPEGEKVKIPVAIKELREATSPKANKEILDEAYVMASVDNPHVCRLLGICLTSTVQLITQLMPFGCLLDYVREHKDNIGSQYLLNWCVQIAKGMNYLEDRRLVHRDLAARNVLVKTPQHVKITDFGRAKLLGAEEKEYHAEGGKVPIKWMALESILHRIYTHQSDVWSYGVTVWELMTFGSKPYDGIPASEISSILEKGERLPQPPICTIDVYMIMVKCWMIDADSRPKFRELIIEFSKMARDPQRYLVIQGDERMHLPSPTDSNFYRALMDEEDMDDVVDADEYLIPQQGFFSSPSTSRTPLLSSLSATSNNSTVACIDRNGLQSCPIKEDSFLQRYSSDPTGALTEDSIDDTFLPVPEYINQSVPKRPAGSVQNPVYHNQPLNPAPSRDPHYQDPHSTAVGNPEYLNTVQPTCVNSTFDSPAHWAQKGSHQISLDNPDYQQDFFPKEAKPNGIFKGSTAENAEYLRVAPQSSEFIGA
measurement.notes: Inhibition of EGFR L858R biochemical enzymatic activity (HTRF)
recorded.conditions: 1 mM ATP, 1 h at room temperature, read-out: IC50 @L858R
Would you mind telling me the reported IC50 of each entry?
Write down the numeric answer in nM and omit the unit.

Prompt: Which IC50 reading was recorded for the molecule Cc1cc2cc(n1)-c1cnn(C)c1OCCN1CC3CCC(CC3)(C1)n1c(nc3ccc(N4CC[C@@H](N(C)C)C4)cc31)NC2=O ?
Completion: 352

Prompt: // repeat for CCN1CCN(c2ccc3nc4n(c3c2)C23CCC(CN(CCOc5c(cnn5C)-c5cc(cc(C)n5)C(=O)N4)C2)C3)CC1 (single isomer, unassigned) [Example B56B] and report
Completion: 26

----------
target.system: EGFR Exon19Del/T790M (Homo sapiens, UniProt P00533, DEL746-750/T790M)
Construct: purchased Carna Bio
Sequence (P00533 with tags, fused parts or gaps DEL746-750/T790M limits assumed): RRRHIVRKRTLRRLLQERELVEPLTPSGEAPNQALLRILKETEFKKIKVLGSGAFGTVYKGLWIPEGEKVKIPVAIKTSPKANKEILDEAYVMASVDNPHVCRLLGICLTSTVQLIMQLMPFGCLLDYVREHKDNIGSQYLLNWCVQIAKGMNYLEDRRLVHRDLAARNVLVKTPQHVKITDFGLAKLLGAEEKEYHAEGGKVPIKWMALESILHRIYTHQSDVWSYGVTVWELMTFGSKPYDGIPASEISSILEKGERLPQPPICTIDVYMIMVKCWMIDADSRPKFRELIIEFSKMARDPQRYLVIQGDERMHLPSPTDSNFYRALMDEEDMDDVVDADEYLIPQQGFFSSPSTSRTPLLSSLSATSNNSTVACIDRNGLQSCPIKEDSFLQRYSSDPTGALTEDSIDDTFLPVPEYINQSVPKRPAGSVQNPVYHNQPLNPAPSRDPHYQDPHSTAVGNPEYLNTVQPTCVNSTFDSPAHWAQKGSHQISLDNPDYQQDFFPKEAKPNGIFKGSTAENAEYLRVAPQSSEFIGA
measurement.notes: Inhibition of EGFR Exon19Del/T790M biochemical enzymatic activity (HTRF)
recorded.conditions: EGFR Del19-T790M, 1 mM ATP, 1 h, room temperature, read-out: IC50 (nM) @Del19-T790M
measured.attribute: IC50 (nM)
Express it in nM; write the number only.

Prompt: # IC50 lookup, item C[C@@H]1CCCOc2c(cnn2C)-c2cc(cn(C)c2=O)C(=O)Nc2nc3ccc(N4CCC5(CC4)CCN5C)cc3n2C1
Completion: 3.5

Prompt: Moving on to the next compound: C[C@@H]1CCCOc2c(cnn2C)-c2cc(cn(C)c2=O)C(=O)Nc2nc3ccc(N4CCOCC4)cc3n2C1
Completion: 5

Prompt: Now consider CN1CCN(c2cc3c(cc2F)nc2n3C34CCC(CC3)CN(CCOc3c(cnn3C)-c3cc(cn(C)c3=O)C(=O)N2)C4)CC1 .
Completion: 12

Prompt: Try this compound too: C[C@@H]1CCCNc2c(cnn2C)-c2cc(cn(C)c2=O)C(=O)Nc2nc3ccc(N4CCN(C)CC4)cc3n2C1
Completion: 112

Prompt: Would you mind doing CN1CCN(c2ccc3c(c2)nc2n3C34CCC(CN(CCOc5c(cnn5C)-c5cc(cn(C)c5=O)C(=O)N2)C3)C4)CC1 (stereo not drawn) [Example A60] as well?
Completion: 8.6

Prompt: Also CCC1CCCOc2c(cnn2C)-c2cc(cn(C)c2=O)C(=O)Nc2nc3ccc(N4CCN(C)CC4)cc3n2C1 (single isomer, unassigned) [Example A16B] , if possible.
Completion: 12

----------
Kindly state IC50 for each of the entries shown.
target.system: EGFR (C797S L858R) (Homo sapiens, UniProt P00533, C797S/L858R)
Construct: purchased signalchem
Sequence (P00533 25-1210 C797S/L858R): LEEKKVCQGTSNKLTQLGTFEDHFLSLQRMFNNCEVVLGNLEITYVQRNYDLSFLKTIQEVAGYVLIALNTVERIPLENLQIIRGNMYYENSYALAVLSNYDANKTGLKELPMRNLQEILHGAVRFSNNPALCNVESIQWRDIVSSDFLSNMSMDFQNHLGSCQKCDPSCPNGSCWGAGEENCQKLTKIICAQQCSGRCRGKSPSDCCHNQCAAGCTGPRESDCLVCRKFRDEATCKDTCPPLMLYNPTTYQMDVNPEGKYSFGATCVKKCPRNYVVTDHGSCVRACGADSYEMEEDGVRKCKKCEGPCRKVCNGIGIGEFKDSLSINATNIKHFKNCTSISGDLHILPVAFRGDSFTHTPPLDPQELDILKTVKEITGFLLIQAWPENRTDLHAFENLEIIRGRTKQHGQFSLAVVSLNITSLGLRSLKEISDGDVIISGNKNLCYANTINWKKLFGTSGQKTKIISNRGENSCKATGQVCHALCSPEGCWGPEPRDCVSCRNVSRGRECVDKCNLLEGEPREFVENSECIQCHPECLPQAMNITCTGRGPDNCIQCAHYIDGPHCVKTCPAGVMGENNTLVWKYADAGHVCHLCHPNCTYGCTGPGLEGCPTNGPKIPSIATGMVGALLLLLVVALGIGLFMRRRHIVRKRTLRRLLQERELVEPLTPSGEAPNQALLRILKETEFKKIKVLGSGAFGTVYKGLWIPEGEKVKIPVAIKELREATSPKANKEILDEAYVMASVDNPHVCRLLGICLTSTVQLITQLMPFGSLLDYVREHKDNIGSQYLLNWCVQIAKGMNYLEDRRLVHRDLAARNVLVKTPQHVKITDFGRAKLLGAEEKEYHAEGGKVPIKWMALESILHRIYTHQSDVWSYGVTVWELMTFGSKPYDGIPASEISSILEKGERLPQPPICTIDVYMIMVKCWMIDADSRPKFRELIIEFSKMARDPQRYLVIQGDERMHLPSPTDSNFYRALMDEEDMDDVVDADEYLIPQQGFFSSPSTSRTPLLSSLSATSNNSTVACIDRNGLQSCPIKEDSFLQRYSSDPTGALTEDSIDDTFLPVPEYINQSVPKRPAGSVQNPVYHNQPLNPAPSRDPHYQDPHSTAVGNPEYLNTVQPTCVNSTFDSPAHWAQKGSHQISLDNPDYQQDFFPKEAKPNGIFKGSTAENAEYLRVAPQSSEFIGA
measurement.notes: Inhibition of EGFR (C797S L858R) biochemical enzymatic activity (HTRF)
recorded.conditions: EGFR L858-C797S, 1 mM ATP, 1 h, room temperature, read-out: IC50 (nM) @L858-C797S
Numeric answer only, unit nM assumed.

Prompt: # IC50 lookup, item C[C@@H]1CCCOc2c(cnn2C)-c2cc(cn(C)c2=O)C(=O)Nc2nc3ccc(N4CCC5(CC4)CCN5C)cc3n2C1
Completion: 4.7

Prompt: C[C@@H]1CCCOc2c(cnn2C)-c2cc(cn(C)c2=O)C(=O)Nc2nc3ccc(N4CC5(CCN(C)CC5)C4)cc3n2C1 , same question.
Completion: 5.3

Prompt: What do you get for CN1CCN(c2ccc3nc4n(c3c2)C23CCC(CN(CCOc5c(cnn5C)-c5cc(cn(C)c5=O)C(=O)N4)C2)C3)CC1 (single isomer, unassigned) [Example A63B] ?
Completion: 1.1

Prompt: Now the compound C[C@@H]1CCCOc2c(cnn2C)-c2cc(cn(C)c2=O)C(=O)Nc2nc3ccc(Br)cc3n2C1
Completion: 1700

Prompt: Entry to check: C[C@@H]1CCCOc2c(cnn2C)-c2cc(cn(C)c2=O)C(=O)Nc2nc3ccc(N4CCN(C)CC4)cc3n2C1
Completion: 6

Prompt: Record: C[C@@H]1CCCOc2c(cnn2C)-c2cc(cn(C)c2=O)C(=O)Nc2nc3ccc(N4CC5(CN(C)C5)C4)cc3n2C1
Completion: 6.7

Prompt: Another: Cn1ncc2c1OCCN1CCCC(C)(C1)n1c(nc3ccc(N4CCOCC4)cc31)NC(=O)c1cc-2c(=O)n(C)c1 (centres unmarked)
Completion: 1950
